Origin of measurements: paper PMC9046089

This section presents compounds with their documented EC50 values.
- Tested on: DOTC24510 cells
- assay-explanation: Cell proliferation assay (Incucyte growth inhibition)
- Assay type: cell-based
- test-context: Homo sapiens, DoTc2-4510, growth inhibition, three replicates
Write the answer as a number in nM, unit excluded.

C=CCn1c(=O)c2cnc(Nc3ccc(N4CCN(C)CC4)cc3)nc2n1-c1cccc(C(C)(C)O)n1 ... 38

Next:
The value of EC50 measured for the compound Cc1cc2c(C(N)=O)c(N)n(-c3c(C)ccc(O)c3C)c2nc1C turned out to be 456

----------
- assay-explanation: In vitro blood/plasma ratio and fraction unbound in plasma
- Assay type: in vitro ADME
- test-context: plasma, CD-1 mouse, read-out: fraction unbound (fu) plasma
endpoint-name: fraction unbound
The reply should be a number, written without any unit.

Cc1cc2c(C(N)=O)c(N)n(-c3c(C)ccc(O)c3C)c2nc1C yielded fraction unbound of 0.185
